- target_or_system: T1, OX40 (antigen of the competitive ELISA of Example 5) (UniProt P43489 29-214)
- T1 sequence (looked up): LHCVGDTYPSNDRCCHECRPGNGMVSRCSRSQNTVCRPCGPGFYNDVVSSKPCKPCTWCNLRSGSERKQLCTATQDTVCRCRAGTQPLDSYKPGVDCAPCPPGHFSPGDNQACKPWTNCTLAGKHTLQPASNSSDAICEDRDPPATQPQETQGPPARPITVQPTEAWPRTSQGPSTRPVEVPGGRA
- assay_explanation: competitive ELISA; competitor MOXR0916
Please provide measured percentage of competition for the entries that follow.
Please reply with the bare figure in % and do not write the unit itself.

Request: Return percentage of competition (reported value) for this binder: MAb053 (antibody, IgG2c, V domains shown) VH: QVQLKQSGPGLVQPSQSLSIICTVSGFSLSDYGVMWVRQSPGKGLEWLGVIWSGGSTDYNAAFTSRLSISRDNSKRQVIFKMNSLQAEDTAIHYCVRETMDYWGQGTSVTVS VL: DIQMTQTTSSLSASLGDRVTISCRASQDISNYLNWYQQRPDGTVKRLIYYTSRLHSGVPSRFSGSGSGTDYSLTISSLEQEDIATYFCQQAHTLPWTFGGGTKLEIK
Response: -2

Request: Return percentage of competition (reported value) for this binder: MAb049 (antibody, IgG1, V domains shown) VH: EVQLQQSGPELVKPGASVKISCKASGHTLTDYYMNWVKQSHGKSPEWIGDINPNNDGIDYNQKFRGKAILTVDKSSSSFYMELRSLTSEDSAVYYCVGFVRGYFVSWGQGTTLTVSS VL: DIQMTQTTSSLSASLGDRVTINCRASQDISNYLNWYQQKPDGTVKLLIYYTSRLRSGVPSRFSGSGSGTDYSLTINNLDQEDFATYFCQQGNTLPWTFGGGTKLEI
Response: 90

Request: Return percentage of competition (reported value) for this binder: MAb055 (antibody, IgG1, V domains shown) VH: QVQLKQSGPGLLQPSQSLSITCTVSGFSLDEYGVHWFRQSPGKGLEWLGVIWSGGSTDYNAAFISRLSIRKDNSKSQIFFNMNSLQADDTAIYYCVREEWEYWGQGTTLTVS VL: DIQMTQTTSSLSASLGDRVTISCRPSQDIDNYLNWFQQRPDGTIKLLIYYTSRLHSGVPSRFSGSGSGTDYSLTINNLEQEDIATYFCQQAHTLPYTFGGGTKLEIK
Response: -3

Request: Return percentage of competition (reported value) for this binder: MAb064 (antibody, IgG2c, V domains shown) VH: QVQLKESGPGLVAPSQTLSITCSVSGFSLTNYAVSWVRQPPGKGLEWLGVMWGDGNTNYHSTLISRLSISKDNSKSQVFLKLNSLQTDDTATYYCARSSGWYFDVWGTGTTVTVSS VL: DIQMTQTTPSLSVTLGDRVTIRCRASQDINNYLNWYQQKPDGTVKLLIYYTSESRSGVPSRFSGSGSGTDYSLTISNLEQEDIATYFCQQGYALPPAFGGGTKLEIK
Response: 90

Request: Return percentage of competition (reported value) for this binder: MAb034 (antibody, IgG1, V domains shown) VH: EVQLQQSGPVLVKPGASVKMSCKASGYTFTDFYMNWMRQSHGKSLEWIGVIDPYNGNTSYNQKFKGKATLTVDKSSSTAYMELNSLTSEDSAVYYCARGNYYYYAMDYWGQGTSVTVSS VL: DIVLTQSPASLAVSLGQRATISCRASESVSIHGTHLMYWYQQKPGQPPKLLIYAASNLESGVPARFSGSGSETDFTLNIHPVEEEDAATFFCQQSIEDPPTFGGGTKLEIK
Response: 0

Request: Return percentage of competition (reported value) for this binder: MAb058 (antibody, IgG1, V domains shown) VH: EVQLQQSGPVLVKPGAAVKMSCKASGYIFTDYYIHWVKLSRGESLEWIGLINPYNGGTNYNQQFTGKATLTVDKSSSTAYVELNSLTSGDSAVYYCVRRTGYFDYWGQGTTLTVSS VL: DVVMTQTPLSLPVSLGDQASISCRSSQSLVHSNGNTYLHWYLQKPGQSPKLLIYKVSNRFSGVPDRFSGSGSGTDFTLKISRVEAEDLGVYFCSQTTHVPYTFGGGTKLEIK
Response: -3

Request: Return percentage of competition (reported value) for this binder: MAb047 (antibody, IgG2c, V domains shown) VH: EVQLVESGGGLVKPGGSLKLSCAASGFTFSDYGMYWIRQAPEKGLEWVAYISNGGSSIYYADTVKGRFTVSRDNAKNTLFLQMTSLRSEDTAIYYCARGGELGFAYWGQGTLVTVSA VL: DIQMTQSPASLSVSVGETVTITCRASENIYSNLAWYQQKQGKSPQLLVYAAINLVEGVPSRFSGSGSGTQYSLKINSLQSEDFGSYFCQHFWGLPYTFGGGTKLE
Response: -3

Request: Return percentage of competition (reported value) for this binder: MAb035 (antibody, IgG1, V domains shown) VH: QVQLQQSGAELVRPGASVTLSCKASDYTFTDYEMHWVYQTPVHGLEWIGAIDPETGGTAYNQKFKDKAILTADKSSNTAYMELRSLTSEDSAVYFCTKTGYQFDYWGQGTTLTVSS VL: DIVMTQSQKFMSTSVGDRVSVTCKASQNVGSNVAWYQQKPGQSPKALIYSASYRYSGVPDRFAGSGSGTDFTLTISNVQSEDLADYFCQQYNSHPYTFGGGTKLEIK
Response: 3

Request: Return percentage of competition (reported value) for this binder: MAb041 (antibody, IgG1, V domains shown) VH: EVQLVESGGGLVKPGGSLKLSCAVSGFTFSNSAMSWVRQTPEKRLEWVATITDGGDYTYYSDNVKGRFTISRDNAKNNLYLQMSHLKSEDTAMYYCVRGISYWGQGTLVTVS VL: DIVLTQSPASLAVSLGQRATISCRASKSVSTSSDSYMHWYQQKPGQPPKLLIKYASNLESGVPVRFSGSGSGTDFTLNIHPVEEEDAATYYCQHSREFPWTFGGGTKLEIK
Response: 1

Request: Return percentage of competition (reported value) for this binder: MAb033 (antibody, IgG1, V domains shown) VH: QVQLQQSGAELVRPGTAVRVSCKASGYAFTNYFIEWVKQRPGQGLEWIGVINPGSGDTYYSEKFQGKATLTADKSSSTAYMQLSSLTSEDSAVYFCAREDDYSWFTYWGQGTLVTVSA VL: DIVLTQSPASLAVSLGQRATISCRASENVDNYGISFMHWYRQKPGQPPKLLIYRASNLESGIPARFSGSGSRTDFTLTINPVETDDVATYYCQQSNKDPYTFGGGTKLEIK
Response: -1
